# Target system: BAF3 FL KIT EX11DEL/D816H (Homo sapiens, UniProt P10721, D816H, cells depend on it, form not given)
# Construct: BAF3 FL KIT EX11DEL/D816H
# Sequence (P10721 with tags, fused parts or gaps DEL557-558/D816H, form open): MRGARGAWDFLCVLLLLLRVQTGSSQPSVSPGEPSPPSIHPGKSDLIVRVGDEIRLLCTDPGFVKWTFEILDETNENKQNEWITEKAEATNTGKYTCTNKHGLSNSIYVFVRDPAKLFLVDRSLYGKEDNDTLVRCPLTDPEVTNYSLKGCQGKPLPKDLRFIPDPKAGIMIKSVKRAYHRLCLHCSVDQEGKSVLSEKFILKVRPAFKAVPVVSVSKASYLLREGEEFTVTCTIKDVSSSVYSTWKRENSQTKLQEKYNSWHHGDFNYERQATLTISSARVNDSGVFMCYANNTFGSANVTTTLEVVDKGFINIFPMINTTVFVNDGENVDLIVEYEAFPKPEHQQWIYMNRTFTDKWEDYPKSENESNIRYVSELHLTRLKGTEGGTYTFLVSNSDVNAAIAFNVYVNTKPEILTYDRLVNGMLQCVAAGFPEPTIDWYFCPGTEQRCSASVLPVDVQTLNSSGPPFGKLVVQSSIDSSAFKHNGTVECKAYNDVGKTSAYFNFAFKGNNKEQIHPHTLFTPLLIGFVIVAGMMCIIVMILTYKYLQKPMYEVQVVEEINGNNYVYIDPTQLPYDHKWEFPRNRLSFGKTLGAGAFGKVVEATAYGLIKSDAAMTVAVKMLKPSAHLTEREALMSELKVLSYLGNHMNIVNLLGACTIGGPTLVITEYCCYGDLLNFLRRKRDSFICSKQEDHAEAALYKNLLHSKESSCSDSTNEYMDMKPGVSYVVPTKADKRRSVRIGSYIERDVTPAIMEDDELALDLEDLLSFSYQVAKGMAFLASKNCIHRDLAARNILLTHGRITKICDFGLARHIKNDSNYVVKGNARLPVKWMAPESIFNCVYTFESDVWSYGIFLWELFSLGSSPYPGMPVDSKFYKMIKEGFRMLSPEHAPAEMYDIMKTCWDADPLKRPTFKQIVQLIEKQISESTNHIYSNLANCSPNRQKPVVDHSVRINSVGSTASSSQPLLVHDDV
# Measurement notes: c-Kit assay: Ba/F3 KIT mutant cell viability (Cell Titer-Glo, 72 hours)
# Type: cell-based
# Condition details: viability after 72 hours
# Text: Generation of DBa/F3 KIT Mutant Engineered Cell Lines KIT cDNAs were synthesized by GenScript and cloned into the pLVX-IRES-Puro vector (Clontech). Viral particles were produced by transfecting pLVX-IRES-puro vectors containing KIT mutant genes into HEK293 cells (Invitrogen) using the Trans-Lentiviral ORF Packaging Kit (Thermo Scientific). […]
Provide the reported GI50 of each item.

Solved entries (count: 2):
I have this compound here, `Cc1ccc(C(=O)Nc2cc(C(F)(F)F)ccn2)cc1C#Cc1cnc(NC(=O)N(C)C2CCN(C)CC2)s1` , and I need its recorded GI50.
< 10 nM

Would you kindly share the measured GI50 for `Cc1ccc(C(=O)Nc2cc(C(F)(F)F)ccn2)cc1C#Cc1cnc(NC(=O)N(C)CCN2CCN(C)CC2)s1` ?
10 to 50 nM

Shifting focus to the compound that follows.
Need GI50 of `Cc1ccc(C(=O)Nc2cc(C(F)(F)F)ccn2)cc1C#Cc1cnc(NC(=O)N(C)CCN(C)C)s1` , thanks.
10 to 50 nM

----------
# Target system: BAF3 FL KIT EX11DEL/T670I (Homo sapiens, UniProt P10721, T670I, cells depend on it, form not given)
# Construct: BAF3 FL KIT EX11DEL/T670I
# Sequence (P10721 with tags, fused parts or gaps DEL557-558/T670I, form open): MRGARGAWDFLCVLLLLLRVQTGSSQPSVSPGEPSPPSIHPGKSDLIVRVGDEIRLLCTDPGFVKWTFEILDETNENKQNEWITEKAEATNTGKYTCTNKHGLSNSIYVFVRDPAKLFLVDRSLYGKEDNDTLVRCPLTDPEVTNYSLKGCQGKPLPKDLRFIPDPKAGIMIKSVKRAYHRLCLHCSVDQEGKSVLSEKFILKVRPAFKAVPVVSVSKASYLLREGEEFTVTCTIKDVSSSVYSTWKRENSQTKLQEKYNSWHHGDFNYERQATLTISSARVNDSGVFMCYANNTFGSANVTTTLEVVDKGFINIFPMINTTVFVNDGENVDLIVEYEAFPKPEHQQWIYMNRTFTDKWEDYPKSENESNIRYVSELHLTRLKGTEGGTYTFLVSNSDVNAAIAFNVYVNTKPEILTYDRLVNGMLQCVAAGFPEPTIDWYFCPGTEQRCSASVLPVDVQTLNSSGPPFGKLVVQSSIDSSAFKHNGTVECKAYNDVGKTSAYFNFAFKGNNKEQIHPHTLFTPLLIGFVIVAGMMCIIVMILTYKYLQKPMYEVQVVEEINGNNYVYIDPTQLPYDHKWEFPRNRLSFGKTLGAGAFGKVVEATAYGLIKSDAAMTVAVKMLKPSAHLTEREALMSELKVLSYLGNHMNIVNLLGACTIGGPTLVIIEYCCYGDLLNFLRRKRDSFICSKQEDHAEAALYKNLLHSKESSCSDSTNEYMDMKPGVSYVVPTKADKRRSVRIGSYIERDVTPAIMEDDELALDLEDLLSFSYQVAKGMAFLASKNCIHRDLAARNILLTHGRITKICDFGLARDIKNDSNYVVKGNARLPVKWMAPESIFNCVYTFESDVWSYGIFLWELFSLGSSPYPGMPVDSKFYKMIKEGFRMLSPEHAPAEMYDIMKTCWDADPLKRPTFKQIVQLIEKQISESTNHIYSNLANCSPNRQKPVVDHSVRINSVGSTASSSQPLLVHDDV
# Measurement notes: c-Kit assay: Ba/F3 KIT mutant cell viability (Cell Titer-Glo, 72 hours)
# Format: cell-based
# Condition details: viability after 72 hours
What GI50 was measured for each of the following?

Bench note: what GI50 did `COCCN(C)C(=O)Nc1ncc(C#Cc2cccc(NC(=O)c3cc(C(F)(F)F)ccn3)c2)s1` show?
10 to 50 nM

Which GI50 is listed for `CC(=O)N1CCN(C(=O)Nc2ncc(C#Cc3cc(C(=O)Nc4cc(C(F)(F)F)ccn4)ccc3C)s2)CC1` ?
< 10 nM

# GI50 lookup, item Cc1ccc(C(=O)Nc2cc(C(F)(F)F)ccn2)cc1C#Cc1cnc(NC(=O)N(C)C2CCCN(C)C2)s1 (stereo not drawn)
10 to 50 nM

What does the record list as GI50 for `Cc1ccc(NC(=O)c2cccc(OC(F)(F)F)c2)cc1C#Cc1cnc(NC(=O)N(C)C)s1` ?
10 to 50 nM

// lookup GI50 for `CNCCN(C)C(=O)Nc1ncc(C#Cc2cc(C(=O)Nc3cc(C(F)(F)F)ccn3)ccc2C)s1`
10 to 50 nM

Answer for every listed entry: what is its GI50? The entries follow.
1. Cc1ccc(C(=O)Nc2cc(C(F)(F)F)ccn2)cc1C#Cc1cnc(NC(=O)NCC2CCN(C)CC2)s1
2. CNC(=O)Nc1ncc(C#Cc2cccc(C(=O)Nc3cc(C(F)(F)F)ccn3)c2)s1
3. Cc1ccc(C(=O)Nc2cc(C(F)(F)F)ccn2)cc1C#Cc1cnc(NC(=O)N2CCN(C)CC2)s1

1. 10 to 50 nM
2. < 10 nM
3. < 10 nM

----------
Can you tell me GI50 for the items I'm about to list?
# Target system: BAF3 FL KIT EX11DEL/V654A (Homo sapiens, UniProt P10721, V654A, cells depend on it, form not given)
# Construct: BAF3 FL KIT EX11DEL/V654A
# Sequence (P10721 with tags, fused parts or gaps DEL557-558/V654A, form open): as the sequence (P10721 with tags, fused parts or gaps DEL557-558/D816H, form open) above, with V652A, H814D counted along it
# Measurement notes: c-Kit assay: Ba/F3 KIT mutant cell viability (Cell Titer-Glo, 72 hours)
# Type: cell-based
# Condition details: viability after 72 hours

These recorded examples may help you get a feel for the data.
Please look up its GI50: Cc1ccc(C(=O)Nc2cc(C(F)(F)F)ccn2)cc1C#Cc1cnc(NC(=O)NCCN2CCOCC2)s1 [I-6]
10 to 50 nM

Recorded GI50 for COCCN(C)C(=O)Nc1ncc(C#Cc2cc(NC(=O)c3cc(C(F)(F)F)ccn3)ccc2C)s1 [I-54] , please?
10 to 50 nM

Param item = COCCN(C)C(=O)Nc1ncc(C#Cc2cccc(NC(=O)c3cc(C(F)(F)F)ccn3)c2)s1 [I-61] ; retrieve measured GI50.
10 to 50 nM

Please look up its GI50: Cc1ccc(C(=O)Nc2ccc(CN3CCN(C)CC3)c(C(F)(F)F)c2)cc1C#Cc1cnc(NC(=O)C2CC2)s1 [I-50]
100 to 10000 nM

Given the compound CCN(CC)CCN(C)C(=O)Nc1ncc(C#Cc2cc(NC(=O)c3cc(C(F)(F)F)ccn3)ccc2C)s1 [I-59] , what is its reported GI50?
100 to 10000 nM

Dear colleague, could you please provide GI50 for the compounds listed below?
1. CNC(=O)Nc1ncc(C#Cc2ccc(F)c(C(=O)Nc3cc(C(F)(F)F)ccn3)c2)s1 [I-42]
2. COCCN(C)C(=O)Nc1ncc(C#Cc2cc(C(=O)Nc3cccc(C(F)(F)F)c3OC)ccc2C)s1 [I-47]
3. COC(=O)Nc1ncc(C#Cc2cc(C(=O)Nc3cc(C(F)(F)F)ccn3)ccc2C)s1 [I-3]
4. Cc1ccc(C(=O)Nc2cc(C(F)(F)F)ccn2)cc1C#Cc1cnc(NC(N)=O)s1 [I-2]

1: 100 to 10000 nM; 2: 10 to 50 nM; 3: 10 to 50 nM; 4: < 10 nM

Please look at the items below and tell me GI50 for each one, in order.
1. Cc1ccc(C(=O)Nc2cc(C(F)(F)F)ccn2)cc1C#Cc1cnc(NC(=O)N2CCN(C)CC2)s1 [I-23]
2. CNC(=O)Nc1ncc(C#Cc2cccc(C(=O)Nc3cc(C(F)(F)F)ccn3)c2)s1 [I-44]
3. CNC(=O)Nc1ncc(C#Cc2cc(C(=O)Nc3cc(C(F)(F)F)ccn3)ccc2C)s1 [I-4]
4. Cc1ccc(NC(=O)c2cc(C(F)(F)F)ccn2)cc1C#Cc1cnc(NC(=O)N(C)CCN2CCN(C)CC2)s1 [I-55]

1: 10 to 50 nM; 2: 10 to 50 nM; 3: 10 to 50 nM; 4: 10 to 50 nM

----------
# Target system: BAF3 FL KIT EX11DEL/T670I (Homo sapiens, UniProt P10721, T670I, cells depend on it, form not given)
# Construct: BAF3 FL KIT EX11DEL/T670I
# Measurement notes: c-Kit assay: Ba/F3 KIT mutant cell viability (Cell Titer-Glo, 72 hours)
# Assay type: cell-based
# Condition details: viability after 72 hours
# Excerpt: Generation of DBa/F3 KIT Mutant Engineered Cell Lines KIT cDNAs were synthesized by GenScript and cloned into the pLVX-IRES-Puro vector (Clontech). Viral particles were produced by transfecting pLVX-IRES-puro vectors containing KIT mutant genes into HEK293 cells (Invitrogen) using the Trans-Lentiviral ORF Packaging Kit (Thermo Scientific). […]
Answer each item with its documented GI50.

// known answers, use as guide
Fill blank: measured GI50 of the molecule `Cc1ccc(C(=O)Nc2cc(C(F)(F)F)ccn2)cc1C#Cc1cnc(NC(=O)N(C)CCN(C)C)s1` is ____.
< 10 nM

Look at this molecule and give its reported GI50. `CC(=O)Nc1ncc(C#Cc2cc(C(=O)Nc3cc(C(F)(F)F)ccn3)ccc2C)s1`
10 to 50 nM

For the molecule shown here, `Cc1ccc(C(=O)Nc2cc(C(F)(F)F)ccn2)cc1C#Cc1cnc(NC(=O)NCC(C)(C)O)s1` , give the reported GI50.
10 to 50 nM

I would be grateful if you could share the reported GI50 for `Cc1ccc(C(=O)Nc2cc(C(F)(F)F)ccn2)cc1C#Cc1cnc(NC(=O)N(C)CC(C)(C)O)s1` .
10 to 50 nM

Sample `Cc1ccc(C(=O)Nc2cc(C(F)(F)F)ccn2)cc1C#Cc1cnc(NC(=O)N2CCN(CCO)CC2)s1` — what was its GI50?
< 10 nM

// next entry
Reported GI50, molecule Cc1ccc(C(=O)Nc2cc(C(F)(F)F)ccn2)cc1C#Cc1cnc(NC(=O)NCCN2CCC(O)C2)s1 (stereo not drawn) : ____
10 to 50 nM
